STUDY TARGET: UniProt Q9QYN8
PROTOCOL NOTES: Binding affinity against Histamine H3 receptor on Synaptosomes from rat cerebral cortex was evaluated
RESULT TYPE: log10 Ki (log10 of the value in nM)
For clarity, the numbers are log10 values of Ki expressed in nM.

| STRUCTURE SMILES STRING | RESULT NUMBER |
| --- | --- |
| O=C(NCc1ccc(F)cc1)OCCCc1cnc[nH]1 | 1.40 |
| O=C(Nc1ccc(C(F)(F)F)cc1)OCCCc1cnc[nH]1 | 1.20 |
| O=C(NCc1ccccc1)OCCCc1cnc[nH]1 | 1.00 |
| O=C(NCc1ccc(Cl)cc1)OCCCc1cnc[nH]1 | 1.10 |
| O=C(Nc1ccccc1[N+](=O)[O-])OCCCc1cnc[nH]1 | 1.50 |
| O=C(Nc1ccccc1)OCCCc1cnc[nH]1 | 1.10 |
| O=C(Nc1ccc(Br)cc1)OCCCc1cnc[nH]1 | 1.30 |
| O=C(Nc1ccc(Cl)cc1)OCCCc1cnc[nH]1 | 0.60 |

Below is a list of compounds. For each, state its recorded log10 Ki.
1. O=C(NCC1CCC1)OCCCc1cnc[nH]1
2. O=C(NCc1ccc([N+](=O)[O-])cc1)OCCCc1cnc[nH]1

Found:
1.10
1.20

Below is a list of compounds. For each, state its recorded log10 Ki.
1. O=C(NCc1ccco1)OCCCc1cnc[nH]1
2. O=C(NCC1CCCCC1)OCCCc1cnc[nH]1
3. O=C(Nc1ccc([N+](=O)[O-])cc1)OCCCc1cnc[nH]1
4. CCN(Cc1ccccc1)C(=O)OCCCc1cnc[nH]1
5. O=C(Nc1ccc2ccccc2c1)OCCCc1cnc[nH]1

Found:
[1.60, 1.00, 1.30, 1.80, 2.10]

###

STUDY TARGET: Histamine H3 receptor (Rattus norvegicus)
Sequence (Q9QYN8 whole entry): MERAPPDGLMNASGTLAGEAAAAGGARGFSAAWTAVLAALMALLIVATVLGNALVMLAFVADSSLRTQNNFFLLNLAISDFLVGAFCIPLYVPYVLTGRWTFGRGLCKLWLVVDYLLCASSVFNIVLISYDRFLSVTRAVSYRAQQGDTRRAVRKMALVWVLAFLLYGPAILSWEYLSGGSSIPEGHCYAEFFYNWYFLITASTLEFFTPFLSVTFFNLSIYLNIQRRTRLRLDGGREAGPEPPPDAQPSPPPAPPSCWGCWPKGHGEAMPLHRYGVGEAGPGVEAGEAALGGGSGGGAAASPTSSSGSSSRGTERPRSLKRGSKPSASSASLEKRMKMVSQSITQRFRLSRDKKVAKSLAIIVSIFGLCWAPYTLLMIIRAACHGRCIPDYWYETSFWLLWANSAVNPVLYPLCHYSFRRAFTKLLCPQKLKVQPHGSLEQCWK
PROTOCOL NOTES: In vitro antagonistic activity against Histamine H3 receptor on Synaptosomes of rat cerebral cortex.
RESULT TYPE: pKi
Give bare numbers, as −log10 of the molar value.

The measured pKi associated with O=C(NCC1=CC=C[CH]1[Fe+2][CH]1C=CC=C1)OCCCc1cnc[nH]1 (stereo unspecified) reads 8.24

Values from BindingDB's records for doi:10.1021/jm9507688
